TARGET_OR_SYSTEM: T1, membrane-bound human MSLN (human, UniProt Q13421 296-598)
T1 construct: the assay field says which; The construct expressed in CHOK1 is not described further; also called HuMSLN-CHOK1; human mesothelin on CHOK1 cells
T1 sequence (Q13421 other isoform, or with tags, fused parts or gaps limits assumed): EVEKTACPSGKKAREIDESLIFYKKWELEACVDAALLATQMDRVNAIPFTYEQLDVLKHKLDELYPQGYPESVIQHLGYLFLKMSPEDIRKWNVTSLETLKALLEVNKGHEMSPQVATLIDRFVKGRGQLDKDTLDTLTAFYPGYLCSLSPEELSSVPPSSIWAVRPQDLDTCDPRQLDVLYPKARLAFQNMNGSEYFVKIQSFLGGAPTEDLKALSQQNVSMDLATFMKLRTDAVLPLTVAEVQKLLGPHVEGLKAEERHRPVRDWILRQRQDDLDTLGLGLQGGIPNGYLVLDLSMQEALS
MEASUREMENT_DESCRIPTION: cell ELISA, CHOK1 cells expressing human MSLN
EC50 vs 0.02 µg/mL: less than gives 1; not less than gives -1.

Known results for binders:
[
  {
    "BINDER": "SV017.50G3.1B1 (antibody, V domains shown, also called antibody from hybridoma clone SV017.50G3.1B1) VH: EVQLVESGGGLVQPGESLRLSCAATGFTFSSYWMHWVRQGPGKGLVWVSRINSDGTSTVYADSVKGRFTISRDNAKNTLFLQMNSLRAEDTAVYYCARGRGIMTYWGQGTLVTVSS VL: DIQMTQSPSSLSASVGDRVTITCRASQDIGSWLTWYQRKPEKAPKSLIYAASSLQSGVPSRFSGSGSGTDFTLTISSLQPEDFATYYCQQYKSYPLTFGQGAKLEIK",
    "CLASS_ASSIGNMENT": -1
  },
  {
    "BINDER": "SV018.45B6.1G1 (antibody, V domains shown, also called SV018.45.1G1) VH: QVQLLQSGAEVKKPGASVKVSCKASGYTFTTYGISWVRQAPGQGLEWLGWITAYNRNTNYAQKLQGRVTMTTDTSTSTSFMVLRSLRSDDTAVYYCARVGDSDAFDIWGQGTMVTVSS VL: EIVMTQSPATLSLSPGERATLSCRTSQSVFNSFLSWYQQKPGQAPRLLLYGTSTRATGIPARFSGSGSGTDFTLTISSLQPEDFAVYYCQQDYKLPLTFGGGTKVEIK",
    "CLASS_ASSIGNMENT": 1
  },
  {
    "BINDER": "SV017.47D7.1C2 (antibody, V domains shown, also called antibody from hybridoma clone SV017.47D7.1C2) VH: EVQLVESGGGLVQPGGSLRLSCAATGFTFSSYWMHWVRQGPGKGLVWVSRINSDGTSTVYADSVKGRFTISRDNAKNTLYLQMNSLRAEDTAVYYCARGRGIMTYWGQGTLVTVSS VL: DIQMTQSPSSLSASVGDRVTITCRASQDIGSWLTWYQRKPEKAPKSLIYAASSLQSGVPSRFSGSGSGTDFTLTISSLQPEDFATYYCQQYKSYPLTFGQGAKLEIK",
    "CLASS_ASSIGNMENT": -1
  },
  {
    "BINDER": "SV018.20B12.1D1 (antibody, V domains shown, also called antibody from hybridoma clone SV018.20B12.1D1) VH: QVQLQESGPGLVKPSETLSLTCTVSGGSISSYYWSWIRQPPGKGLEWIGYIYYSGSTNYNPSLKSRVTISVDTSKNQFSLKLSSVTAADTAVYYCARTGYIPMDVWGQGTTVTVSS VL: EIVLTQSPDFQSVTPKEKVTITCRASQSIGSNLHWYQQKPDQSPKLLIKYVSQSFSGVPSRFSGSGSGTDFTLTINSLEAEDAATYYCHQSRSLPYTFGQGTKLEIK",
    "CLASS_ASSIGNMENT": 1
  }
]

Please find the next binder below.
Req: Lab log: compare recorded EC50 with 0.02 µg/mL; is it strictly lower for SV017.51F4.1A1 (antibody, V domains shown, also called antibody from hybridoma clone SV017.51F4.1A1) VH: EVQLVESGGGLVQPGGSLRLSCAATGFTFSSYWMHWVRQGPGKGLVWVSRINSDGTSTVYADSVKGRFTISRDNAKNTLYLQMNSLRAEDTAVYYCARGRGIMTYWGQGTLVTVSS VL: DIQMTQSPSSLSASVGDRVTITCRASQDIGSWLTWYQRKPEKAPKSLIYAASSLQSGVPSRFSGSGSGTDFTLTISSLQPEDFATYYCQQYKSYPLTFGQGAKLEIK ?
Resp: -1
